Sourced from the supplement of paper PMC11208160

assay: recombinant UMI read abundance after kanamycin selection (control-corrected) (log10(CPM+1)); higher = more efficient recombination; extreme values may be limits of the assay; sequences stand for … in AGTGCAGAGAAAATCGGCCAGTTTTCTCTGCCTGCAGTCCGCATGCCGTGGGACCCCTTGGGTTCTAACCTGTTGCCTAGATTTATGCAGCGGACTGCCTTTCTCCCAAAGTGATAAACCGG…AGGTTGGTTTCACT; site = the 11-nt donor
measured_property: recombinant UMI read abundance (log10)

1. GATAGAACATGGACCGGTTTTCCCGGTAATCCGTATTTGGC (site GTTAGAACTGC); 0
2. ACAAGAACATGGACCGGTTTTCCCGGTAATCCGTATTTGTC (site ACAGGAACTGA); 0
3. GACAAACCATGGACCGGTTTTCCCGGTAATCCGTATTTGGG (site GACAAACCTCC); 0
4. CCCTTGTCATGGACCGGTTTTCCCGGTAATCCGTATTTGGG (site CCCTTCTCTCC); 0.00922
5. GCGAAAACATGGACCGGTTTTCCCGGTAATCCGTATTTGCT (site GCGAATACTAG); 0

Consider CCCTAGCCATGGACCGGTTTTCCCGGTAATCCGTATTTGTC (site CCCTAGCCTGT) . Its measured recombinant UMI read abundance (log10) is 0

Consider TCCAATTCATGGACCGGTTTTCCCGGTAATCCGTATTTGGC (site TCCAATTCTGG) . Its measured recombinant UMI read abundance (log10) is 0

Consider CTGGATACATGGACCGGTTTTCCCGGTAATCCGTATTTGCA (site CTGGATACTTG) . Its measured recombinant UMI read abundance (log10) is 1.81

Consider ATGTAGGCATGGACCGGTTTTCCCGGTAATCCGTATTTGAC (site ATGTAGGCTGC) . Its measured recombinant UMI read abundance (log10) is 1.87

###

experiment: recombinant barcode read abundance after kanamycin selection (control-corrected) (log10(CPM+1)); higher = more efficient recombination; sequences stand for … in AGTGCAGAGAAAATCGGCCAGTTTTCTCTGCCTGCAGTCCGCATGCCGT…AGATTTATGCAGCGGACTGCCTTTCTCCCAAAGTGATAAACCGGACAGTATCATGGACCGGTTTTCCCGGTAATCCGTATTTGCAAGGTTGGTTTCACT; site = the 11-nt target
Short version: recombinant barcode read abundance (log10) at least 0.3 is criterion met, less is criterion not met.

1) TTAACGGCTTGGGTTCTAACCTGTTGCCT (site TTAACGGCTAG); criterion met
2) TGAGAACCTTGGGTTCTAACCTGTTGCCT (site GGAGAACCTAG); criterion not met
3) CGAGCTCCTTGGGTTCTAACCTGTTGCTT (site CGAGCTCCTAT); criterion met
4) GATCTGCCTTGGGTTCTAACCTGTTGCCT (site GATCTGCCTAG); criterion met

Kindly review the next sequence as well.
Is reported recombinant barcode read abundance (log10) greater than or equal to 0.3 here: TCGCACTCTTGGGTTCTAACCTGTTGCCT (site TCCCACTCTAG)
criterion not met

###

assay: recombinant UMI read abundance after kanamycin selection (control-corrected) (log10(CPM+1)); higher = more efficient recombination; extreme values may be limits of the assay; sequences stand for … in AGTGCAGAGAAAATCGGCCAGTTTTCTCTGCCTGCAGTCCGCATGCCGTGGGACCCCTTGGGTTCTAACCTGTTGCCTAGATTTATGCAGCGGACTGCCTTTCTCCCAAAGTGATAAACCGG…AGGTTGGTTTCACT; site = the 11-nt donor
// bucketize recombinant UMI read abundance (log10): low class = under 0.009, middle class = from 0.009 up to 1, high class = 1 and over

1) GTAGGTACATGGACCGGTTTTCCCGGTAATCCGTATTTGAC (site GTAGTTACTGT); high class
2) CGGGAGCCATGGACCGGTTTTCCCGGTAATCCGTATTTGAT (site CGGGAGCCTAT); middle class

Which class does AAGGTAACATGGACCGGTTTTCCCGGTAATCCGTATTTGCT (site AATGTAACTAG) fall in?
high class
